# assay.info: Oral bioavailability in mouse at 20 mg/kg
# Type: ADME, organism-based
# assay.setup: in vivo
result.type: bioavailability (%)
Reply with just the number (in %).

1. Cc1cc(CS(=O)(=O)c2ccccc2)cc(OCc2ccc(CN3CCC[C@@H]3CO)cc2)c1 = 1.92

Then this compound:
Query :: So what's the measured bioavailability for this one? Cc1cc(CS(=O)(=O)C2CC2)cc(OCc2ccc(CN3CCC[C@@H]3CO)cc2)c1
Result :: 4.95

* * *

# assay.info: Half life in mouse at 50 mg/kg, ip
# Type: ADME, organism-based
# assay.setup: in vivo
result.type: half-life (h)
Express the result in h but write the number alone.

Query :: For the compound shown here, Cc1cc(OCc2ccc(CN3CCC[C@@H]3CO)cc2)cc(CS(=O)(=O)c2ccccc2)c1Br , give the reported half-life.
Result :: 4.2
